Measured TGI values are reported for all entries that follow.
- Test system: IGROV1 ovarian
- test_protocol: NCI tumour cell line growth inhibition, 48 h
quantity_kind: TGI

INSERT INTO measurements (compound, meas_value) VALUES
  ('N#Cc1c(Nc2ccc(F)cc2)[n+]([O-])c2ccc(Cl)cc2[n+]1[O-]', '4.02 µM'),
  ('Cc1cc(NS(=O)(=O)c2ccc(Nc3c4ccccc4nc4c(C(=O)Nc5ccc(S(=O)(=O)N=C(N)N)cc5)cccc34)cc2)no1', '> 100 µM'),
  ('Cc1cc(C)c(S(=O)(=O)N(CCCCN)OCCCN)c(C)c1', '29.4 µM'),
  ('Cc1cc(C)cc(-n2c3nc(=O)n(C)c(=O)c-3nc3ccccc32)c1', '94.6 µM'),
  ('Cc1cnc[nH]c1=O', '> 100 µM'),
  ('COc1ccc(-c2nn(-c3cccc(Cl)c3)cc2C=C(C#N)C#N)cc1', '6.29 µM'),
  ('CCOC(=O)c1sc(-c2ccc(OS(=O)(=O)c3cccs3)c(C=O)c2)nc1C', '3.41 µM'),
  ('C(=N\Nc1nnc2c(n1)[nH]c1ccccc12)/c1cccnc1', '> 100 µM'),
  ('COc1ccccc1/C=C\c1cnnc2ccccc12', '> 10 µM'),
  ('CC1=CC(O)C(O)C2(C)C1CC1OC(=O)C(O)C3C(C)C(O)C4(O)OCC13C42 (stereo unspecified)', '224 µM'),
  ('CCc1nnc(-n2c(C)nc3cc(Cl)ccc3c2=O)s1', '> 100 µM'),
  ('CC[C@@]1(O)C(=O)NCc2c1cc1n(c2=O)Cc2cc3ccccc3nc2-1', '> 100 µM'),
  ('Cc1ccc(C(=O)N(C(C)C)C(C)C)cc1N=NN(C)C', '> 100 µM'),
  ('COc1ccc(-c2ccc3c(NC(=O)C4CC4)n[nH]c3n2)cc1', '> 25 µM'),
  ('Cc1cccc(NC(=O)C(=O)C2C(=O)NC(=O)NC2=O)c1C', '> 100 µM'),
  ('CCN(CC)CCO/N=C1\CC[C@H]2[C@@H]3CC=C4C[C@@H](O)CC[C@]4(C)[C@H]3CC[C@]12C', '> 100 µM'),
  ('Cl.[Pt].[c-]1ccccc1-c1ccccn1.c1ccc(P(c2ccccc2)C([PH+](c2ccccc2)c2ccccc2)[PH+](c2ccccc2)c2ccccc2)cc1', '> 100 µM'),
  ('CC1(O)C=CC2CCC1C2O (stereo unspecified)', '> 100 µM'),
  ('CN(C)CCCNc1nn2c(=O)c3ccccc3nc2c2ccccc12', '47.8 µM'),
  ('Cc1ccc(S(=O)(=O)N(/N=C(\N)Oc2ccc(Cl)cc2)C(=N)Oc2ccc(Cl)cc2)cc1', '> 100 µM'),
  ('Nc1nc2c(ncn2C2OC(CO)C(O)C2N)c(=O)[nH]1 (stereo unspecified)', '> 100 µM');

----------
- Test system: DU-145 prostate
- test_protocol: NCI tumour cell line growth inhibition, 48 h
Measured TGI values are reported for all entries that follow.
quantity_kind: TGI

INSERT INTO assay_data (compound, target, quantity_kind, meas_value) VALUES
  ('Cc1nnc2cc(C(=O)O)c3ccccc3n2c1=O', 'DU-145 prostate', 'TGI', '> 10 µM'),
  ('N#CC1=C(N)C(C#N)(C#N)C(c2ccc(F)cc2)C=C1C1CC1 (configuration not stated)', 'DU-145 prostate', 'TGI', '25.6 µM'),
  ('O=C(c1ccccc1Nc1ccnc(C(F)(F)F)c1)N1CCN(c2cccc(Cl)c2)CC1', 'DU-145 prostate', 'TGI', '> 100 µM'),
  ('CC1(C)COC(c2cccc(C3=NC(C)(C)CO3)c2Br)=N1', 'DU-145 prostate', 'TGI', '> 100 µM'),
  ('O=C(c1ccccc1)c1c(C(F)(F)F)n([O-])c2ccccc2[n+]1=O', 'DU-145 prostate', 'TGI', '4.54 µM'),
  ('Cc1cc2ccccc2n1CC(=O)NCC(C)C', 'DU-145 prostate', 'TGI', '> 100 µM'),
  ('O=C(/C=C/c1ccc(C(F)(F)F)cc1)c1ccc(Nc2nc(NCCO)nc(NCCO)n2)cc1', 'DU-145 prostate', 'TGI', '14.3 µM'),
  ('OCC1OC(n2cnc3cccnc32)CC1O (configuration not stated)', 'DU-145 prostate', 'TGI', '> 100 µM'),
  ('O=C1c2ccccc2C(=O)c2c1ccc(C(Br)Br)c2[N+](=O)[O-]', 'DU-145 prostate', 'TGI', '4.01 µM'),
  ('CC(=O)N(CN1C(=O)CCC1C(=O)O)c1ccccc1 (configuration not stated)', 'DU-145 prostate', 'TGI', '> 100 µM'),
  ('CN(C)CCOC(=O)COc1ccc(Cl)cc1', 'DU-145 prostate', 'TGI', '> 100 µM'),
  ('Cn1nc(C(F)(F)F)c(-c2ccc(Cl)c(C(F)(F)F)c2)c1-c1ccc(OCc2ccc(Cl)cc2)cc1O', 'DU-145 prostate', 'TGI', '7.47 µM'),
  ('COc1ccc(-c2nn(-c3cccc(Cl)c3)cc2C=C(C#N)C#N)cc1', 'DU-145 prostate', 'TGI', '90.1 µM'),
  ('O=NC1c2cccc3cccc(c23)C1N=O (configuration not stated)', 'DU-145 prostate', 'TGI', '> 100 µM'),
  ('COC(=O)C1=C(O)C(C(=O)OC)[C@@]2(O)[C@@H](C(=O)OC)C(c3ccc(OC(=O)/C(=C/c4ccc(Cl)cc4)c4ccc(Cl)cc4)cc3)C[C@@H]1[C@@H]2C(=O)OC (some centres not stated)', 'DU-145 prostate', 'TGI', '> 100 µM'),
  ('Cc1ccc(S(=O)(=O)n2cncc2CO)cc1', 'DU-145 prostate', 'TGI', '> 100 µM'),
  ('O=C(CC(O)(C(F)(F)F)C(F)(F)F)C(CCCl)C(O)(C(F)(F)F)C(F)(F)F (configuration not stated)', 'DU-145 prostate', 'TGI', '> 100 µM'),
  ('NC(=O)CCC(NC(=O)OCc1ccccc1)C(=O)OCC(=O)c1ccccc1 (configuration not stated)', 'DU-145 prostate', 'TGI', '> 100 µM'),
  ('O=C1NC(=S)N/C1=C/c1ccccc1O', 'DU-145 prostate', 'TGI', '> 100 µM'),
  ('COc1ccc(OC)c(-c2nc3sccn3c2/C=C2/C(=O)Nc3ccc(Cl)cc32)c1', 'DU-145 prostate', 'TGI', '> 100 µM'),
  ('CN(CCc1ccc(Cl)c(Cl)c1)[C@H]1CCCC[C@H]1N1CCCC1', 'DU-145 prostate', 'TGI', '> 100 µM'),
  ('C(=N\Nc1nnc2c(n1)[nH]c1ccccc12)/c1cccnc1', 'DU-145 prostate', 'TGI', '> 100 µM');

----------
- Tested on: SF-295 CNS
- test_protocol: NCI tumour cell line growth inhibition, 48 h
quantity_kind: TGI

INSERT INTO assay_data (molecule, meas_value) VALUES
  ('COC(=O)C(=O)C1(CCC(C)=O)c2ccccc2-c2ccccc21', '> 100 µM'),
  ('COc1ccc(/C=C2\Cc3ccccc3C2=O)cc1OC', '> 100 µM'),
  ('O=[N+]([O-])c1cccc([N+](=O)[O-])c1S(=O)(=O)c1ccccc1', '31.8 µM'),
  ('CC(=O)O[C@H]1C#C/C=C\C#CC[C@@H]2C(=O)N(C(=O)OC(C)(C)C)[C@@H]12', '> 100 µM'),
  ('O=C(c1ccccc1)C1C(C(=O)c2ccccc2)N1Cc1ccccc1 (stereo not given)', '> 100 µM');

----------
Measured TGI values are reported for all entries that follow.
- Test system: K-562 leukemia
- test_protocol: NCI tumour cell line growth inhibition, 48 h
quantity_kind: TGI

INSERT INTO results (compound, quantity_kind, meas_value) VALUES
  ('CC(CN=C(CC(=O)c1ccc(Br)cc1)c1ccccc1)N=C(CC(=O)c1ccc(Br)cc1)c1ccccc1 (centres undefined)', 'TGI', '> 100 µM'),
  ('Cc1cc2ccccc2c[n+]1CC(O)C[n+]1cc2ccccc2cc1C', 'TGI', '> 100 µM'),
  ('O=C1/C(=C/c2ccccc2)CCc2ccc(Cl)nc21', 'TGI', '6.78 µM'),
  ('Cc1ccc(C(=O)N(C(C)C)C(C)C)cc1N=NN(C)C', 'TGI', '> 100 µM'),
  ('COc1ccc(/C(C)=C(\c2ccc(Cl)cc2)c2ccc(OCCN3CCCC3)cc2)cc1', 'TGI', '7.23 µM'),
  ('CN1CCn2c(Br)ccc2C1=O', 'TGI', '> 100 µM'),
  ('O=C(N/N=C(/c1nc2ccc(Cl)cc2[nH]c1=O)C(O)c1ccc(Cl)cc1Cl)c1ccncc1 (centres undefined)', 'TGI', '> 100 µM'),
  ('CC(C)CCC[C@@H](C)[C@H]1CC[C@H]2[C@@H]3CC=C4C[C@@H](OC(=O)c5cccc6c(=O)c7ccccc7[nH]c56)CC[C@]4(C)[C@H]3CC[C@]12C', 'TGI', '> 75 µM'),
  ('COc1ccc(-c2nn(-c3cccc(Cl)c3)cc2C=C(C#N)C#N)cc1', 'TGI', '10.4 µM'),
  ('C/C(=C/CO[Si](C)(C)C(C)(C)C)C(=O)N(C)c1ccccc1I', 'TGI', '> 100 µM'),
  ('C#CCN1C(=O)/C(=c2\sc3n(c2=O)C2C(NN=3)N(CC)C(=O)N2CC)c2ccccc21 (centres undefined)', 'TGI', '> 100 µM'),
  ('CCc1nnc(-n2c(C)nc3cc(Cl)ccc3c2=O)s1', 'TGI', '> 100 µM'),
  ('Cc1cc(S(=O)(=O)Nc2nnc3c(C(F)(F)F)cc(Cl)cn23)c(S)cc1Cl', 'TGI', '> 100 µM'),
  ('O=C(Nn1c(-c2ccccc2)nc2ccccc2c1=O)c1ccccn1', 'TGI', '> 100 µM'),
  ('CC(C)C[C@H](NC(=O)[C@H](CCc1ccccc1)NC(=O)CN1CCOCC1)C(=O)N[C@@H](Cc1ccccc1)C(=O)N[C@@H](CC(C)C)C(=O)[C@@]1(C)CO1', 'TGI', '> 100 µM'),
  ('C=C(CN1CCN(c2ccccc2OC)CC1)c1ccc(C(=O)Nc2ccccc2N)cc1', 'TGI', '> 50 µM'),
  ('Cc1cccc(NC(=O)C(=O)C2C(=O)NC(=O)NC2=O)c1C', 'TGI', '> 100 µM'),
  ('C#CCNC(Cc1cnc[nH]1)C(=O)O (centres undefined)', 'TGI', '> 100 µM'),
  ('CCOC(=O)C(C)(C)Oc1ccc2c(=O)cc(-c3ccccc3)oc2c1', 'TGI', '31.2 µM'),
  ('Nc1nc2c(ncn2C2OC(CO)C(O)C2N)c(=O)[nH]1 (centres undefined)', 'TGI', '> 100 µM'),
  ('CCCCC[C@@H]1OCO[C@@]2(C)/C=C(C)/C=C/C(=O)O[C@H]([C@@H](C)[C@@H](O)[C@H](C)[C@@]3(O)C[C@@H](O[C@H]4C[C@@H](O)[C@H](O)[C@@H](C)O4)[C@H](C)[C@@H](C)O3)[C@@H](OC)/C=C/C=C(\C)C[C@@H]1[C@@H]2O (stereo in doubt)', 'TGI', '7.54 µM'),
  ('OCC1OC(n2cnc3cccnc32)CC1O (centres undefined)', 'TGI', '> 100 µM'),
  ('COc1cc(-c2cc(-c3ccc(N(C)C)cc3)nc(N3CCOCC3)c2C#N)cc(OC)c1OC', 'TGI', '> 24.6 µM'),
  ('C[C@]12O[C@H](C[C@]1(O)CO)n1c3ccccc3c3c4c(c5c6ccccc6n2c5c31)CNC4=O', 'TGI', '> 100 µM');
